target.under.test: GlcNAc(a1-3)Gal(b1-4)GlcNAc
assay.text: glycan array binding signal (z-score within array); higher = stronger binding
applied.conditions: glycan notation: IUPAC condensed, linker removed
About 410 targets per protein were measured; listed, in parts, are those with the strongest signals and a random draw of the rest.
Assignment: determine reported glycan array binding signal (z-score) for the given binders.

Consider the following illustrative entries.
>>> observed_measurement("HHA (Hippeastrum hybrid) (protein) MQQDCNLVLYDVDKPIWASNTGGLARDCHLNMQSDGNLVVYAPRNQVIWASNTQGENGNYVCILQKDRNVVIYGTARWATGTNIHGAGIVGVPGSAPQNTTAEMIKLVRKYLITK")
-0.2
>>> observed_measurement("BTL (Bryothamnion triquetrum) (protein) ADPICGSSGYSCTTPAILTPKSPGSFPSGYSKVIVTGVGGSYSVYIHRPDGFKVYKASEGGCASFGSYSGGGNSEVGKYGSGGTVVAVACK")
-0.194
>>> observed_measurement("AAL (Aleuria aurantia), P18891 (protein) PTEFLYTSKIAAISWAATGGRQQRVYFQDLNGKIREAQRGGDNPWTGGSSQNVIGEAKLFSPLAAVTWKSAQGIQIRVYCVNKDNILSEFVYDGSKWITGQLGSVGVKVGSNSKLAALQWGGSESAPPNIRVYYQKSNGSGSSIHEYVWSGKWTAGASFGSTVPGTGIGATAIGPGRLRIYYQATDNKIREHCWDSNSWYVGGFSASASAGVSIAAISWGSTPNIRVYWQKGREELYEAAYGGSWNTPGQIKDASRPTPSLPDTFIAANSSGNIDISVFFQASGVSLQQWQWISGKGWSIGAVVPTGTPAGW")
-0.512

Provide each entry's glycan array binding signal (z-score) from the list below.
1. Langerin K313I (Homo sapiens), Q9UJ71 (protein) STLNAQIPELKSDLEKASALNTKIRALQGSLENMSKLLKRQNDILQVVSQGWKYFKGNFYYFSLIPKTWYSAEQFCVSRNSHLTSVTSESEQEFLYKTAGGLIYWIGLTKAGMEGDWSWVDDTPFNKVQSARFWIPGEPNNAGNNEHCGNIKAPSLQAWNDAPCDITFLFICKRPYVPSEP
2. HPA (Helix pomatia), Q575S3 (protein) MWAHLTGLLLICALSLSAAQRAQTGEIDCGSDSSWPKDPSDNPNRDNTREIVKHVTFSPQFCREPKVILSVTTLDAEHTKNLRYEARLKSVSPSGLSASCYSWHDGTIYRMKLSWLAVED
3. MAL (Maackia amurensis) (protein) SDELSFTINNFMPNQGDLLFQGVATVSPTGVLQLTSEENGQPLEYSVGRVLYTAPVRIWDSTTGAVASFSTSFTFVVKAARGASDGLAFFLAPPDSQIPSGSVSKYLGLFNNSNSDSSNQIVAVEFDTYFGHSYDPWDPNYRHIGIDVNGIESIKTVQWDWINGGVAFATITYLAPNKTLIASLVYPSNQTSFIVAASVDLKEILPEWVRVGFSAATGAPKAVETHDVRSWSFTSTLEANSPADVDN
4. AT3G09350(27) (Arabidopsis thaliana), Q84J81 (protein) MAKDGPNWDGLLKWSLSHADGTRPTRQLSEEDRKWFMEAMQSQTVDVVKRMKEITLVMQTPEQVLVEHGVTPEDIQDLLDELQEHVESIDMANDLHSIGGLVPLLSFLKNSHANIRAKAADVVSTIVQNNPRSQELVMETNALESLLSNFTSDTDIHARTQALGAISSLIRHNKPGVTAFKLANGYAGLRDALASDSVRFQRKALNLLQYLLQEDDSDRSIATGLGFPRVMMHLASSDDAEIREAALRGLLELSREKNDGSSSIDKSDEKLRQLLEERIKGITLMSQEDLETVKEERQLVDLLWSICYNEPSSLREKGLVVLPGEDALPPDVASKLFEPPLRASAANRNATEKKDEPMKLLGP

[-0.393, 4.69, -0.353, -0.46]
